TEST SYSTEM: human RORγt ligand binding domain (RORγt LBD) (Homo sapiens (Human))
Sequence (P51449 other isoform, or with tags, fused parts or gaps): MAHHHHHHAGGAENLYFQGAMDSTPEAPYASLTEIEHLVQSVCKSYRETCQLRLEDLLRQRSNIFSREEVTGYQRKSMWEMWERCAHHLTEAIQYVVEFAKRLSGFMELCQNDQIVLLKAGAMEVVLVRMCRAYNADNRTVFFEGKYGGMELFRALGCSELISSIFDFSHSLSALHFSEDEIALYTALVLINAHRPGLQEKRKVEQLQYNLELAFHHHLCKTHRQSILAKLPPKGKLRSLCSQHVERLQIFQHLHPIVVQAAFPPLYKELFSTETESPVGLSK
ASSAY TEXT: RORγt ThermoFluor® assay (thermal shift binding)
TEST SETTINGS: read-out: ThermoFluor® Assay, Kd
OBSERVED PROPERTY: pKd
Scale: pKd equals -log10([C]), with [C] in mol/L.

Take a look at these entries with their results.
CC(C)(O)CNC(=O)c1nc(C(=O)N2C3CCC2CC3)c(-c2cnc(NC(C)(C)C3CC3)cc2C(F)F)s1	8.89
C[C@H]1CCCCN1C(=O)c1nc(C(=O)NCC(C)(C)O)sc1-c1cnc(NC2CCCC2)cc1C(F)F	9.13
CC(C)(C)Nc1cc(C(F)F)c(-c2sc(C(=O)NC3CCS(=O)(=O)CC3)nc2C(=O)N2C3CCC2CC3)cn1	8.92

# context switch: different molecule, same pKd
Reported pKd for C[C@H](NC(=O)c1nc(C(=O)N2CC(F)(F)C[C@@H]2C)c(-c2cnc(N[C@@H](C)C(F)(F)F)cc2C(F)F)s1)C(C)(C)O : what is it?
8.77
